# tested system: Histone deacetylase 7 (Homo sapiens)
# test summary: Inhibition of human recombinant HDAC7 at 10 uM incubated for 10 mins prior to substrate addition measured after 60 mins by spectrophotometric analysis
Calls of active or inactive are those of the source. The rule behind the calls is not given here.
measurement name: inhibition

Solved cases (4 shown):
structure notation	inhibition
O=C(CCCCc1cn(Cc2ccc3ccccc3n2)nn1)NO	inactive
O=C(CCCCc1cn(Cc2ccc(Oc3ccccc3)cc2)nn1)NO	inactive
N#Cc1ccc(Cn2cc(CCCCC(=O)NO)nn2)cc1	inactive
Cc1ccccc1Cn1cc(CCCCC(=O)NO)nn1	inactive

The reported inhibition of the compound O=C(CCCCc1cn(Cc2ccc(F)c(Cl)c2)nn1)NO was inactive

Entry O=C(CCCCc1cn(Cc2ccc(Cl)cc2)nn1)NO ; inhibition = inactive

inhibition measured on O=C(CCCCc1cn(Cc2ccc3c(c2)OCO3)nn1)NO = inactive

What the record says about O=C(CCCCc1cn(Cc2ccccc2Cn2cc(CCCCC(=O)NO)nn2)nn1)NO : inhibition is inactive

Looking up COc1cc(Cn2cc(CCCCC(=O)NO)nn2)cc(OC)c1 , I see its inhibition listed as inactive

Summary for this compound, O=C(CCCCc1cn(Cc2c(Br)cc(Br)cc2Br)nn1)NO : inhibition is inactive

The compound listed as O=C(CCCCc1cn(Cc2cccc(Br)c2)nn1)NO has a reported inhibition of inactive

Reported inhibition for O=C(CCCCc1cn(Cc2ccccn2)nn1)NO was inactive

Quick note, inhibition for O=C(CCCCc1cn(Cc2ccccc2)nn1)NO landed at inactive

Record summary for COc1ccc(Br)c(Cn2cc(CCCCC(=O)NO)nn2)c1 : reported inhibition = inactive

The reported value for O=C(CCCCc1cn(Cc2ccc3ccccc3c2)nn1)NO in terms of inhibition is inactive

Summary for this compound, O=C(CCCCc1cn(Cc2cccc(-c3ccccc3)c2)nn1)NO : inhibition is inactive

Entry O=C(CCCCc1cn(Cc2ccc(Br)cc2)nn1)NO ; inhibition = inactive

Query O=C(CCCCc1cn(Cc2ccc(F)cc2)nn1)NO yields inhibition of inactive

Entry O=C(CCCCc1cn(Cc2ccc(-c3ccccc3)cc2)nn1)NO ; inhibition = inactive

Please fill in: inhibition reported for Cc1cc(C)cc(Cn2cc(CCCCC(=O)NO)nn2)c1 = inactive

The value of inhibition measured for the compound O=C(CCCCc1cn(Cc2ccccc2Br)nn1)NO turned out to be inactive

* * *

# tested system: Histone deacetylase 1 (Homo sapiens, UniProt Q13547)
# Sequence (Q13547 whole entry): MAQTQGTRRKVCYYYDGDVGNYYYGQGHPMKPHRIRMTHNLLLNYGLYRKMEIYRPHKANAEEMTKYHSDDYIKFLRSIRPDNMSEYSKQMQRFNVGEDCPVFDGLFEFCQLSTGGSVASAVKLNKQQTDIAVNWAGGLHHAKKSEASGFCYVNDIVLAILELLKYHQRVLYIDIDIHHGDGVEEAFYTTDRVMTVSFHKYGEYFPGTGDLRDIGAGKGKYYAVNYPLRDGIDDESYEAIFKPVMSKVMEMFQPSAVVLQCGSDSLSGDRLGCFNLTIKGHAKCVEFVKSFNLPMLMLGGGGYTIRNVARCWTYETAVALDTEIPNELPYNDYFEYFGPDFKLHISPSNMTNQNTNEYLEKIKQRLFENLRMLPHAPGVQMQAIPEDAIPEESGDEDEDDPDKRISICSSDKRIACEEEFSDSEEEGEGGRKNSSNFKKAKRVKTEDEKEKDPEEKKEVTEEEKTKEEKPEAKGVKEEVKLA
# test summary: Inhibition of human recombinant HDAC1 incubated for 10 mins prior to substrate addition measured after 60 mins by spectrophotometric analysis
measurement name: log10 of IC50 (log10 of the value in nM)
Hello, just confirming the data are log10 of IC50 with units of nM.

Some solved cases for reference:
structure notation	log10 of IC50
O=C(CCCCc1cn(Cc2ccccc2Cn2cc(CCCCC(=O)NO)nn2)nn1)NO	2.91
O=C(CCCCc1cn(Cc2ccccc2Br)nn1)NO	3.55
O=C(CCCCc1cn(Cc2ccc(Oc3ccccc3)cc2)nn1)NO	2.09
COc1ccc(Cn2cc(CCCCC(=O)NO)nn2)cc1	3.27
COc1cc(Br)c(Cn2cc(CCCCC(=O)NO)nn2)cc1OC	2.94

Consider the record given below.
The molecule listed as COc1ccc(Br)c(Cn2cc(CCCCC(=O)NO)nn2)c1 shows log10 of IC50 equal to 2.20

* * *

# tested system: Histone deacetylase 1 (Homo sapiens, UniProt Q13547)
# test summary: Inhibition of human recombinant HDAC1 incubated for 10 mins prior to substrate addition measured after 60 mins by spectrophotometric analysis
The class of a record is decided solely by its measured IC50; consult lower segment: < 600 nM; middle segment: ≥ 600 nM and < 2000 nM; upper segment: ≥ 2000 nM

Reference set, count: 5
structure notation	class name
O=C(CCCCc1cn(Cc2ccccc2F)nn1)NO	middle segment
O=C(CCCCc1cn(Cc2ccc(Br)cc2)nn1)NO	middle segment
O=C(CCCCc1cn(Cc2ccc(F)c(Cl)c2)nn1)NO	middle segment
Cc1ccccc1Cn1cc(CCCCC(=O)NO)nn1	middle segment
N#Cc1ccc(Cn2cc(CCCCC(=O)NO)nn2)cc1	middle segment

Ask: Input O=C(CCCCc1cn(Cc2cccc(Br)c2)nn1)NO ; output its category
Reply: lower segment

Ask: Sort O=C(CCCCc1cn(Cc2ccc(C(F)(F)F)cc2)nn1)NO into one of the categories.
Reply: lower segment

Ask: Which band does O=C(CCCCc1cn(Cc2ccc(Cl)cc2)nn1)NO fall in?
Reply: upper segment

Ask: Exam item: assign O=C(CCCCc1cn(Cc2ccccc2)nn1)NO to the correct category.
Reply: middle segment

Ask: Hi, small favor: classify O=C(CCCCc1cn(Cc2ccc3ccccc3c2)nn1)NO by its IC50 when you get a moment.
Reply: lower segment

Ask: Lab note: sort O=C(CCCCn1cc(-c2ccccc2)nn1)NO into the matching IC50 band.
Reply: upper segment

* * *

# Tested on: DU-145
# test summary: Growth inhibition of human DU145 cells by MTT assay
# Type: functional
Listed next: entries and their corresponding GI50.
Please state the figure in µM; there is no need to write the unit.

Worked examples follow.
structure notation	measurement name	value reported
O=C(CCCCc1cn(Cc2ccc3ccccc3c2)nn1)NO	GI50	7.23
COc1ccc(Br)c(Cn2cc(CCCCC(=O)NO)nn2)c1	GI50	5.62
O=C(CCCCc1cn(Cc2ccc3ccccc3n2)nn1)NO	GI50	4.06
O=C(CCCCc1cn(Cc2ccc(Oc3ccccc3)cc2)nn1)NO	GI50	4.49

// field: GI50; key: O=C(CCCCc1cn(Cc2ccc(-c3ccccc3)cc2)nn1)NO ; value = 1.21

Entry under test: COc1cc(Cn2cc(CCCCC(=O)NO)nn2)cc(OC)c1 . Its GI50 was 7.89

Record summary for O=C(CCCCc1cn(Cc2ccc(Br)cc2)nn1)NO : reported GI50 = 7.91

Quick note, GI50 for O=C(CCCCc1cn(Cc2cccc(-c3ccccc3)c2)nn1)NO landed at 1.19

Recorded GI50 (molecule CC(C)(C)c1ccc(Cn2cc(CCCCC(=O)NO)nn2)cc1 ): 7.2

* * *

# Tested on: A-431
# test summary: Growth inhibition of human A431 cells by MTT assay
# Assay type: functional
# GI50 per entry
Note: unit µM is implicit; provide only the numeric part.

Check out these entries, answers already filled in.
structure notation	tested system	measurement name	value reported
O=C(CCCCc1cn(Cc2cccc(-c3ccccc3)c2)nn1)NO	A-431	GI50	4.65
O=C(CCCCc1cn(Cc2ccc3ccccc3c2)nn1)NO	A-431	GI50	5.68
O=C(CCCCc1cn(Cc2ccc(-c3ccccc3)cc2)nn1)NO	A-431	GI50	2.99
COc1cc(Br)c(Cn2cc(CCCCC(=O)NO)nn2)cc1OC	A-431	GI50	17.3
COc1cc(Cn2cc(CCCCC(=O)NO)nn2)cc(OC)c1	A-431	GI50	6.8

I looked up O=C(CCCCc1cn(Cc2ccc(Oc3ccccc3)cc2)nn1)NO and its GI50 for A-431 was 9.03

Form field GI50 for item O=C(CCCCc1cn(Cc2ccc(Br)cc2)nn1)NO on A-431: 15.4

* * *

# tested system: Histone deacetylase 1 (Homo sapiens)
# test summary: Inhibition of human recombinant HDAC1 incubated for 10 mins prior to substrate addition measured after 60 mins by spectrophotometric analysis
pIC50 by entry:
// returns pIC50 (minus log10 of molar concentration), number only

Example entries and their recorded answers appear below.
structure notation	tested system	pIC50
O=C(CCCCc1cn(Cc2ccc3ccccc3n2)nn1)NO	Histone deacetylase 1 (Homo sapiens)	6.61
O=C(CCCCc1cn(Cc2cccc(-c3ccccc3)c2)nn1)NO	Histone deacetylase 1 (Homo sapiens)	7.24

Per the record, O=C(CCCCc1cn(Cc2ccccn2)nn1)NO has pIC50 of 5.59

# pIC50 (molecule: O=C(CCCCc1cn(Cc2ccc(F)cc2F)nn1)NO ) is 5.91

pIC50 for O=C(CCCCc1cn(Cc2ccc3c(c2)OCO3)nn1)NO is 5.72

Sample Cc1ccc(Cn2cc(CCCCC(=O)NO)nn2)cc1 ; pIC50 observed: 6.36

Documented pIC50 of O=C(CCCCc1cn(Cc2ccc(F)cc2)nn1)NO : 6.19

Looking up COc1cc(Cn2cc(CCCCC(=O)NO)nn2)cc(OC)c1 , I found its pIC50 recorded as 6.60

pIC50 measured on Cc1cc(C)cc(Cn2cc(CCCCC(=O)NO)nn2)c1 = 6.57

Measured pIC50 of O=C(CCCCc1cn(Cc2ccc(-c3ccccc3)cc2)nn1)NO : 6.69
